Experimental Target: T1, soluble human TF (human TF 1-219 with the FLAG peptide linked to the C-terminal) (human, UniProt P13726 33-251)
T1 construct: Entry is the whole soluble construct (TF 1-219 followed by FLAG peptide M2); also called soluble TF; shTF
T1 sequence (P13726 other isoform, or with tags, fused parts or gaps limits assumed): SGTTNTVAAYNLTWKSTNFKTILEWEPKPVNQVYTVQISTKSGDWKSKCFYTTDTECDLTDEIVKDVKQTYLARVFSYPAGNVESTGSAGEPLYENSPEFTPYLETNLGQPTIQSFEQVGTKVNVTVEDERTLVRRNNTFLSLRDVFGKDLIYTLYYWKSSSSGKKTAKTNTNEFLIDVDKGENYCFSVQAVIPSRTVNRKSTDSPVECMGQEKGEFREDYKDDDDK
Assay Details: BIACORE; antibody captured on Protein G chip, soluble TF as analyte; mean ± SD, n = 3
Outcome Measure: koff (s⁻¹)
Report the figure in s⁻¹ without appending any unit label.

Briefly, koff measured for H chain humanized version i/L chain humanized version b2 antibody (antibody, IgG4, V domains shown, also called i-b2; ib2) VH: QVQLLESGAVLARPGTSVKISCKASGFNIKDYYMHWVKQRPGQGLEWIGGNDPANGHSMYDPKFQGRVTITADTSTSTAYMELRSLRSDDTAVYYCARDSGYAMDYWGQGTLVTVSS VL: DIQMTQSPSSLSASVGDRVTITCKASQDIKSFLSWYQQKPEKAPKSLIYYATSLADGVPSRFSGSGSGTDYTLTISSLQPEDFATYYCLQHGESPYTFGGGTKVEIK : 0.000635
